- method-summary: in vivo
- study-conditions: male, SD, rat, po, 2 mg/kg, MRTInf_obs, individual rat
recorded-endpoint: MRT inf (h)

>>> obs_value("Nc1ncn([C@H]2C[C@H](O)[C@@H](CO)S2)c(=O)n1 [Form F, 5-Aza-4′-thio-2′-deoxycytidine]")
5.09

###

- method-summary: Thermodynamic solubility, shake-flask method
- Format: physicochemical
- study-conditions: organic solvent or mixture, thermodynamic from solid; Heptane; RT, 24 hours
recorded-endpoint: solubility at 24 h

>>> obs_value("Nc1ncn([C@H]2C[C@H](O)[C@@H](CO)S2)c(=O)n1")
"< 100 µg/mL"

###

- method-summary: Pharmacokinetics of capsules in male SD rats
- study-conditions: male, SD, rat, plasma, po, 2 mg/kg, AUCInf, individual rat, capsule, male SD rat
recorded-endpoint: AUC(0-inf)

>>> obs_value("Nc1ncn([C@H]2C[C@H](O)[C@@H](CO)S2)c(=O)n1")
"4080 ng·h/mL"
